- assayedSystem: T1, full-length human GIPR with an N-terminal FLAG tag (human, UniProt P48546 22-466)
- T1 sequence (looked up): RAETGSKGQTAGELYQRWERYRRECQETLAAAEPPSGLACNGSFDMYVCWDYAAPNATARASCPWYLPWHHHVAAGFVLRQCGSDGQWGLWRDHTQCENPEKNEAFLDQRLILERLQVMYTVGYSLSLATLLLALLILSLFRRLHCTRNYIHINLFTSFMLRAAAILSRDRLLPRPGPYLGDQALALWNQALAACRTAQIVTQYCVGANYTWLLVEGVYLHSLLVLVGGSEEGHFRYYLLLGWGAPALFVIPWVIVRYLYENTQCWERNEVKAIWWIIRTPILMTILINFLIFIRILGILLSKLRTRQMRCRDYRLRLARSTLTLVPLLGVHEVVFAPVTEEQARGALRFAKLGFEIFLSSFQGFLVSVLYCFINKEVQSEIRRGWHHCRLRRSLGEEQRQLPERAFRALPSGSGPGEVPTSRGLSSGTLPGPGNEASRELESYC
- assayDetails: cell-based or functional assay
Starred links: 1 amine or outer side, 2 acyl side, 3 side chain; linkers in the order of their positions; H or OH if unused. Non-standard residues stand in square brackets, D forms with d. Groups on a side chain read outwards from the residue. No end group written: not given here. *: point of attachment. C18 diacid = O=C(O)CCCCCCCCCCCCCCCCC(=O)*; C17 diacid = O=C(O)CCCCCCCCCCCCCCCC(=O)*; γGlu = O=C(O)[C@H](CCC(=O)[*:2])N[*:1]; NMeY = CN[C@@H](Cc1ccc(O)cc1)C(=O)O; AEEA = NCCOCCOCC(=O)O; Aib = CC(C)(N)C(=O)O
experimentalEndpoint: Human GIPR cAMP EC50, HEK293T

Before answering, review these 2 worked examples.
binder	Human GIPR cAMP EC50, HEK293T
[NMeY][Aib]EGTFISDYSI[Aib]LDR[Aib]AQ[Aib]K([AEEA-γGlu-γGlu-C18 diacid])FVNWLLAQSPSSGAPPPS-NH2 [Compound No. 93]	0.6 pM
H-Y[Aib]EGTFISDYSIALDKIAQ[Aib]K([AEEA-AEEA-γGlu-γGlu-C17 diacid])FVEWLLAQRG-OH [Compound No. 132]	0.9 pM

Fill in Human GIPR cAMP EC50, HEK293T for record [NMeY][Aib]EGTFISDYSIALDR[Aib]K([AEEA-AEEA-γGlu-γGlu-C17 diacid])Q[Aib]NFVNWLLAQSGGGGS-NH2 [Compound No. 31]
0.3 pM

Tell me Human GIPR cAMP EC50, HEK293T reported for YXEGTFISDYSIXXDRXAQRDFVEWLLAQRG (N-terminus H; Aib at 2,13,17; Lys(G5-C18 diacid) at 14; C-terminal OH) [Compound No. 147]
0.8 pM

Provide only the value of recorded Human GIPR cAMP EC50, HEK293T for [NMeY][Aib]EGTFISDYSIALDR[Aib]AQ[Aib]K([AEEA-AEEA-γGlu-γGlu-C17 diacid])FVNWLLAQRGGGGS-NH2 [Compound No. 30]
0.6 pM
